study system: UniProtKB O43174
Sequence (O43174 whole entry): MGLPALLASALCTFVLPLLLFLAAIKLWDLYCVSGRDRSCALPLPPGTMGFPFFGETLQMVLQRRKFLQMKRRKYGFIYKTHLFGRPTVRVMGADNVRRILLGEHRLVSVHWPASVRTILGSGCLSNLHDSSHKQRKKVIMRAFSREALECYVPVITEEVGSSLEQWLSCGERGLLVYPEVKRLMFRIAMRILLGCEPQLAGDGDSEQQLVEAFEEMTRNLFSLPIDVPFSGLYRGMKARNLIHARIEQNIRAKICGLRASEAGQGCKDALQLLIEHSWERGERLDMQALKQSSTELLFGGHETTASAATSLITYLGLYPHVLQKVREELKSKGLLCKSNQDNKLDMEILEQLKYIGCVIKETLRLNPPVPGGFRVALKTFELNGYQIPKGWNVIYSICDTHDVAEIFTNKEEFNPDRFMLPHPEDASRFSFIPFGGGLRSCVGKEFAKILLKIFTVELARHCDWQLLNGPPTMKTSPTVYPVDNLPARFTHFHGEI
protocol description: Inhibition of CYP26A1 in human MCF7 cells
assay readout: IC50 (µM)

Recorded results for 5 compounds are shown here.
compound: c1ccc(Nc2ccc(C(c3ccccc3)n3ccnc3)cc2)cc1 (configuration not stated)
study system: UniProtKB O43174
IC50 (µM): 5
//
compound: c1ccc(C(c2ccc(Nc3nc4ccccc4s3)cc2)n2ccnc2)cc1 (configuration not stated)
study system: UniProtKB O43174
IC50 (µM): 1.5
//
compound: c1ccc(C(c2ccc(Nc3nc4ccccc4[nH]3)cc2)n2ccnc2)cc1 (configuration not stated)
study system: UniProtKB O43174
IC50 (µM): 2.5
//
compound: c1ccc(C(c2ccc(Nc3ccc4c(c3)CCC4)cc2)n2ccnc2)cc1 (configuration not stated)
study system: UniProtKB O43174
IC50 (µM): 1
//
compound: CCc1ccc(C(c2cc3ccccc3o2)n2cncn2)cc1 (configuration not stated)
study system: UniProtKB O43174
IC50 (µM): 4.5

(a) CC(c1ccc(Nc2ccccc2)cc1)n1ccnc1 (configuration not stated)
(b) c1ccc(C(c2ccc(Nc3ccc4ccccc4c3)cc2)n2ccnc2)cc1 (configuration not stated)
(c) c1ccc(C(c2ccc(Nc3nc4ccccc4o3)cc2)n2ccnc2)cc1 (configuration not stated)
(d) CC(c1ccc(Nc2ccc3ccccc3c2)cc1)n1ccnc1 (configuration not stated)
(e) c1ccc(Nc2ccc(C(c3ccccc3)n3cncn3)cc2)cc1 (configuration not stated)
Problem: List from greatest to least IC50. State the ranking by listing the labels in the requested order.
Solution: a, d, e, c, b
